# Test method notes: melting temperature; fluorescence melt of hairpins on a sequencing array, two-state fit, raised by 9.35 °C to match UV melts
# Measurement conditions: sodium 0.088 M
Note to self: class labels come from recorded Tm, ranges listed here: low value = under 40 °C, medium value = from 40 °C up to 60 °C, high value = 60 °C and over

// below: answered sequences
>>> label_class("GAGTCCGAAAGGACCCTC ((((((....)))..)))")
"medium value"
>>> label_class("GATCAATTAGTTGATC ((((((....))))))")
"medium value"
>>> label_class("GGGGCCGGAAACAGCCCC (((((.(....).)))))")
"medium value"

-- ask State the class of the sequence shown: GCACTTGGAAACAAGTGC (((((((....)))))))
-- reply high value

-- ask State the class of the sequence shown: GATCTATTTGTAGATC ((((((....))))))
-- reply medium value

-- ask State the class of the sequence shown: GTTGGTGGAAACACCGAC ((.((((....)))).))
-- reply medium value

-- ask State the class of the sequence shown: GCTAACGGAAACATTAGC (((((.(....).)))))
-- reply low value

-- ask State the class of the sequence shown: GCTAAGGGAAACTTTAGC (((((.(....).)))))
-- reply low value

-- ask State the class of the sequence shown: GACCACGAAAGTGTCGTC ((((((....)))..)))
-- reply medium value

-- ask State the class of the sequence shown: GTGGGCGAAAGCCCCCAC ((((((....)))..)))
-- reply low value

-- ask State the class of the sequence shown: GCGCTGGGAAACTAGCGC (((((.(....).)))))
-- reply high value

====

# Test method notes: folding enthalpy; higher = less favourable; fluorescence melt of hairpins on a sequencing array, two-state fit
# Measurement conditions: sodium 0.088 M
Endpoint label: folding enthalpy (kcal/mol)
Just the number please, in kcal/mol, no unit attached.

>>> obs_value("GACAACACGAAAGTGGTC (((..(((....))))))")
-16
>>> obs_value("GAGTTCGGAAACGAATTC ((.((((....)))).))")
-30.8
>>> obs_value("GTTGCCGGAAACGGCGAC ((.((((....)))).))")
-20.1
>>> obs_value("GCTGTGGGAAACCGCAGC ((((.((....)).))))")
-44.6
>>> obs_value("GGATAGCGAAAGCTCTCC (((.(((....))).)))")
-30.9
>>> obs_value("GCGTTAGGACGC ((((....))))")
-25.4

-- ask // folding enthalpy lookup, key: GATCCGTGGGCGGATC ((((((....))))))
-- reply -30.1

-- ask // folding enthalpy lookup, key: GGTGACGAAAGTCAGACC ((((((....)))..)))
-- reply -14.6

-- ask // folding enthalpy lookup, key: GAATGAGAAATCATTC ((((((....))))))
-- reply -26.8

-- ask // folding enthalpy lookup, key: GATCTGTTGCCAGATC ((((((....))))))
-- reply -36.9

-- ask // folding enthalpy lookup, key: GATCCGCGCCCGGATC ((((((....))))))
-- reply -45.8

-- ask // folding enthalpy lookup, key: GCCAATGGAAACACTGGC ((((.((....)).))))
-- reply -31.9

====

# Test method notes: folding enthalpy; higher = less favourable; fluorescence melt of hairpins on a sequencing array, two-state fit
# Measurement conditions: sodium 0.088 M
# binarize folding enthalpy: threshold -20 kcal/mol inclusive, high side YES, low side NO

// below: answered sequences
>>> label_class("GGACGGTCGAAAGACTCC (((..(((....))))))")
"YES"
>>> label_class("GCGTCGGGAAACCGATGC ((.((((....)))).))")
"NO"
>>> label_class("GCATAGCGAAAGCTAGGC ((.((((....)))).))")
"NO"

-- ask # bool: folding enthalpy of GGACTCGAAAGAGTATCC ((((((....)))..))) >= -20 kcal/mol
-- reply YES

-- ask # bool: folding enthalpy of GAACTTGGAAACAAGTTC (((((((....))))))) >= -20 kcal/mol
-- reply NO

-- ask # bool: folding enthalpy of GCGGATGGCCGC ((((....)))) >= -20 kcal/mol
-- reply NO

-- ask # bool: folding enthalpy of GAGACCGAAAGGTGCTC ((((((....))).))) >= -20 kcal/mol
-- reply NO

====

# Test method notes: folding enthalpy; higher = less favourable; fluorescence melt of hairpins on a sequencing array, two-state fit
# Measurement conditions: sodium 0.088 M
# binarize folding enthalpy: threshold -20 kcal/mol inclusive, high side t, low side f

// below: answered sequences
>>> label_class("GCGGTCAACCGC ((((....))))")
"f"
>>> label_class("GATAAGGGAAACCTTATC (((((((....)))))))")
"f"
>>> label_class("GCAAAGCGAAAGCTTGGC ((.((((....)))).))")
"f"

In the following, a different sequence is considered.
-- ask # bool: folding enthalpy of GTAGACGAAAGTCCCTAC ((((((....)))..))) >= -20 kcal/mol
-- reply t

====

# maps each entry to its folding enthalpy
# Test method notes: folding enthalpy; higher = less favourable; fluorescence melt of hairpins on a sequencing array, two-state fit
# Measurement conditions: sodium 0.088 M
Just the number please, in kcal/mol, no unit attached.

Use the examples below as a reference point.
>>> obs_value("GCTCGACGAAAGTCTAGC (((.(((....))).)))")
-41.8
>>> obs_value("GATCGTATGCACGATC ((((((....))))))")
-26.1
>>> obs_value("GGTTCCGGAAACGGAGTC (..((((....))))..)")
-11.7
>>> obs_value("GTGCGTCGAAAGACTCAC (((.(((....))).)))")
-40.2
>>> obs_value("GAAATCCGAAAGGACTTC (((.(((....))).)))")
-29.8

-- ask // folding enthalpy lookup, key: GCAACGGGAAACCGTCAC (..((((....))))..)
-- reply -11.2

-- ask // folding enthalpy lookup, key: GATCTTGTCTAAGATC ((((((....))))))
-- reply -40.6

====

# Test method notes: melting temperature; fluorescence melt of hairpins on a sequencing array, two-state fit, raised by 9.35 °C to match UV melts
# Measurement conditions: sodium 0.088 M
Endpoint label: Tm (°C)
Just the number please, in °C, no unit attached.

Use the examples below as a reference point.
>>> obs_value("GTCCCAGCGAAAGCTGAC (((..(((....))))))")
22.4
>>> obs_value("GTATTCGAAAGAATTTAC ((((((....)))..)))")
27.5
>>> obs_value("GCCTCGTCGAAAGACGGC (((..(((....))))))")
49.6
>>> obs_value("GGGGACGAAAGTCATCCC ((((((....)))..)))")
45.6
>>> obs_value("GATCAGATCACTGATC ((((((....))))))")
49.9

-- ask // Tm lookup, key: GATCTTCCTGAAGATC ((((((....))))))
-- reply 51.2

-- ask // Tm lookup, key: GAAAACGAAAGTTCTTTC ((((((....)))..)))
-- reply 28.9

-- ask // Tm lookup, key: GCGAAATGTCGC ((((....))))
-- reply 44.8

-- ask // Tm lookup, key: GCAGACGGAAACGTCTAC (.(((((....))))).)
-- reply 42.7

-- ask // Tm lookup, key: GATGGGGGAAACCCTATC (((.(((....))).)))
-- reply 45

-- ask // Tm lookup, key: GCCCAAACGAAAGTTGGC (((..(((....))))))
-- reply 45

-- ask // Tm lookup, key: GAGTTTGAAAAAACTC ((((((....))))))
-- reply 50.8

====

# maps each entry to its folding enthalpy
# Test method notes: folding enthalpy; higher = less favourable; fluorescence melt of hairpins on a sequencing array, two-state fit
# Measurement conditions: sodium 0.088 M
Just the number please, in kcal/mol, no unit attached.

Use the examples below as a reference point.
>>> obs_value("CGACCGGAAACGGTGTCG ((((((....)))..)))")
-14.8
>>> obs_value("GCTTGTGGAAACGTAAGC ((((..(....)..))))")
-17.7
>>> obs_value("CGTTCGGAAACGATTACG ((((((....)))..)))")
-18.1
>>> obs_value("GCACGGCGAAAGCGTTGC (((..((....))..)))")
-18.5
>>> obs_value("GATCGATCTTCGATC ((((((...))))))")
-33.6

-- ask // folding enthalpy lookup, key: GCTAGGCGAAAGCCAGC (((.(((....))))))
-- reply -21.7

-- ask // folding enthalpy lookup, key: GCACTCGAAAGAGTATGC ((((((....)))..)))
-- reply -16.2

-- ask // folding enthalpy lookup, key: GAGTAGAAATACTC (((((....)))))
-- reply -16.7

-- ask // folding enthalpy lookup, key: GACATGCCGAAAGGCGTC (((..(((....))))))
-- reply -11.1

-- ask // folding enthalpy lookup, key: GATCCGCCATCGGATC ((((((....))))))
-- reply -37

-- ask // folding enthalpy lookup, key: GTAGGAGCGAAAGCTTAC (((..(((....))))))
-- reply -11.2

-- ask // folding enthalpy lookup, key: GAGTTGGGAAACCGACTC ((((.((....)).))))
-- reply -40.2

Data provenance is the array DNA melting data of Ke et al. (doi:10.1101/2024.01.08.574731).
